Biological target: T1, hAng2 (Homo sapiens, UniProt O15123)
T1 sequence (O15123 19-496): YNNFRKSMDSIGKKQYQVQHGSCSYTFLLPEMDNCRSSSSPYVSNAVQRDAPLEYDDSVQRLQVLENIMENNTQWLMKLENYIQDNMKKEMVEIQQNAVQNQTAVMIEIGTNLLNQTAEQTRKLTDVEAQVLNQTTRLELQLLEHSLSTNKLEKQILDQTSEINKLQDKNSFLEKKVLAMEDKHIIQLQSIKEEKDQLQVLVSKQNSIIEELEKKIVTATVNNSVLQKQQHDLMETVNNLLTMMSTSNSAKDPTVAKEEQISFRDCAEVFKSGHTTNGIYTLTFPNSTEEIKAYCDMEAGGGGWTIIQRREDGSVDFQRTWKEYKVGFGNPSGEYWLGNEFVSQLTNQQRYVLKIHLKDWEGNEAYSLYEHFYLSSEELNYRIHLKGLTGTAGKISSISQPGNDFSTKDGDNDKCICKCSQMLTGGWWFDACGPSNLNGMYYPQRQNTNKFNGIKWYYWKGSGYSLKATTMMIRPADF
Assay: OCTET affinity of humanized anti-Ang2 antibodies against hAng2
Assay type: binding
Settings: OCTET, antibody fixed on AR2G biosensor, hAng2 50-0 nM, 1:1 binding model
Measurement type: Kdis (s⁻¹)

1) 2C8H21: humanized anti-Ang2 antibody from mouse 2C8; VH SEQ ID NO: 59, VL SEQ ID NO: 60 (antibody, V domains shown, VH; VL) VH: QVQLVQSGAEVKKPGASVKVSCKASGYSFTSYWMHWVRQAPGQGLEWIGMIDPSDSETRLNQKFKDRVTMTRDTSTSTVYMELSSLRSEDTAVYYCARRFYYGSDWYFDVWGQGTLVTVSS VL: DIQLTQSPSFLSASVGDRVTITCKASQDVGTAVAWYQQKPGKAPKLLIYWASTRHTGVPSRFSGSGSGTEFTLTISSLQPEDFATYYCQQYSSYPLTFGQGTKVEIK :: 1.5e-05
2) 2C8H12: humanized anti-Ang2 antibody from mouse 2C8; VH SEQ ID NO: 75, VL SEQ ID NO: 76 (antibody, V domains shown, VH; VL) VH: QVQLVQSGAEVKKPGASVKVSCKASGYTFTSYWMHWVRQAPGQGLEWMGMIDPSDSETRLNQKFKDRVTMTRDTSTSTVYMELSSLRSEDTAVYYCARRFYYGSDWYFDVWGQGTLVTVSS VL: DIQLTQSPSFLSASVGDRVSITCKASQDVGTAVAWYQQKPGKAPKLLIYWASTRHTGVPDRFSGSGSGTEFTLTISSLQPEDFATYYCQQYSSYPLTFGQGTKVEIK :: 1.33e-05
